- measuredOn: adenosine A2A receptor (Homo sapiens (Human), UniProt P29274)
- Sequence (P29274 whole entry): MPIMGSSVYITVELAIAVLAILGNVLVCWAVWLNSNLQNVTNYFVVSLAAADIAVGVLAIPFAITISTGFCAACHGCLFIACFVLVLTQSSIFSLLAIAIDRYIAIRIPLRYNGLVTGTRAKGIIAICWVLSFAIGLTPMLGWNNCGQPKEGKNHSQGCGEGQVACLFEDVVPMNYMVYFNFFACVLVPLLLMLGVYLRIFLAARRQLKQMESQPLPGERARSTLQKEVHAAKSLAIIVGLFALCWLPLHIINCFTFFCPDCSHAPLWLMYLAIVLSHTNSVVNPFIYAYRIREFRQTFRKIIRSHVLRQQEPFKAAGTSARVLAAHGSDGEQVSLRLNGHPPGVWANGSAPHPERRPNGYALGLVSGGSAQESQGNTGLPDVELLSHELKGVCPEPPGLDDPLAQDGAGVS
- assayComment: Adenosine receptor activity assay (Table 1), A2A activity
- Format: biochemical
- runConditions: read-out: Ave A2A cAMP IC50
experimentalReadout: IC50

Prompt line: Name the recorded IC50 for CC(=O)N[C@H]1CCN(C(=O)c2nc(N[C@@H](C)c3cccnc3)nc3ccsc23)C1 [Example Z322] .
Response line: > 0.5 µM

Prompt line: Name the recorded IC50 for Cc1cc2nc(N[C@@H](C)c3cncc(F)c3)nc(C(=O)N3CC[C@@H](CO)C3)c2s1 [Example Z310] .
Response line: 0.1 to 0.5 µM

Prompt line: Name the recorded IC50 for C[C@H](Nc1nc(C(=O)N2CCN(C(=O)OCC(C)(C)C)C2)c2sccc2n1)c1cncc(F)c1 [Example Z566] .
Response line: > 0.5 µM

Prompt line: Name the recorded IC50 for Cc1cc2nc(N[C@@H](C)c3cncc(F)c3)nc(C(=O)N3CC(NC(=O)C4CCCO4)C3)c2s1 (stereo partly shown) [Example Z541] .
Response line: 0.01 to 0.05 µM

Prompt line: Name the recorded IC50 for C[C@H](Nc1nc(C(=O)N2CC[C@@H](O)C2)c2sc(C(F)(F)F)cc2n1)c1cccnc1 [Example Z337] .
Response line: > 0.5 µM

Prompt line: Name the recorded IC50 for COc1ccc(CNC(=O)c2nc(N[C@@H](C)c3ccncc3)nc3ccsc23)cn1 [Example Z345] .
Response line: 0.1 to 0.5 µM

Prompt line: Name the recorded IC50 for COC[C@H]1CCN(C(=O)c2nc(N[C@@H](C)c3ccccn3)nc3cc(C)sc23)C1 [Example Z468] .
Response line: > 0.5 µM

Prompt line: Name the recorded IC50 for Cc1cc2nc(N[C@@H](C)c3cncc(F)c3)nc(C(=O)N3CC(NC(=O)C(C)C)C3)c2s1 [Example Z588] .
Response line: < 0.01 µM

Prompt line: Name the recorded IC50 for CC(=O)Nc1ccc(CCNC(=O)c2nc(N[C@@H](C)c3cncc(F)c3)nc3cc(C)sc23)cc1 [Example Z488] .
Response line: > 0.5 µM

Prompt line: Name the recorded IC50 for Cc1cc2nc(N[C@@H](C)c3cccnc3)nc(C(=O)NCC[C@@H]3CCNC3)c2s1 [Example Z500] .
Response line: > 0.5 µM

Prompt line: Name the recorded IC50 for O=C(NCc1ccccc1)c1nc(NCc2ccccc2)nc2ccsc12 [Example Z51] .
Response line: 0.1 to 0.5 µM

Prompt line: Name the recorded IC50 for Cc1cc2nc(N[C@@H](C)c3cccnc3)nc(C(=O)NCC3CCOCC3)c2s1 [Example Z375] .
Response line: 0.1 to 0.5 µM

Prompt line: Name the recorded IC50 for C[C@H](Nc1nc(C(=O)N2CCCCC2)c2sccc2n1)c1cccnc1 [Example Z31] .
Response line: > 0.5 µM

Prompt line: Name the recorded IC50 for COc1cncc(NC(=O)c2nc(N[C@@H](C)c3ccccn3)nc3ccsc23)c1 [Example Z307] .
Response line: 0.1 to 0.5 µM

Prompt line: Name the recorded IC50 for Cc1cc2nc(N[C@@H](C)c3cncc(F)c3)nc(C(=O)N3CC(N(C)C(=O)OC(C)(C)C)C3)c2s1 [Example Z484] .
Response line: 0.1 to 0.5 µM

Prompt line: Name the recorded IC50 for C[C@H](Nc1nc(C(=O)NCCN)c2sccc2n1)c1cncc(F)c1 [Example Z536] .
Response line: > 0.5 µM
